- measured-target: recombinant human NK3 receptor (Homo sapiens)
- Sequence (P29371 whole entry): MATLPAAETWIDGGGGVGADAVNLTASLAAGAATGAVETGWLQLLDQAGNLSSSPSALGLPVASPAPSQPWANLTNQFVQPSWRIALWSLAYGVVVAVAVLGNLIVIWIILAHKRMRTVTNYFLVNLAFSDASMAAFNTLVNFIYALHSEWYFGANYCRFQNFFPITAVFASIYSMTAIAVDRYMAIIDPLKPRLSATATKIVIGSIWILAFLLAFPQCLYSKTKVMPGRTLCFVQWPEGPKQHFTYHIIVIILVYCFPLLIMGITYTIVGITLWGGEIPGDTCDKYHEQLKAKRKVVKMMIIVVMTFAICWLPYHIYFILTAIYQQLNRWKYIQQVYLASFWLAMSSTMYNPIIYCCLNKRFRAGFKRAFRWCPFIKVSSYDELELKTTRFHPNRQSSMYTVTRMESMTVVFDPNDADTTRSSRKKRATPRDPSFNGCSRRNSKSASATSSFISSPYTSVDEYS
- test: [3H]SR142801 competition binding assay
- condition-description: membranes from HEK293 cells transiently expressing recombinant human NK3 receptor; [3H]SR142801 radioligand; 75 min at RT; Ki by Cheng-Prussoff; read-out: Data Ki (hNK-3 receptor affinity)
Ki: recorded values
Note: unit nM is implicit; provide only the numeric part.

Would you please look over these solved cases?
Cc1nc(-c2ccc(C(=O)N3CCC(C(=O)N[C@@H](C)c4ccccc4)(c4ccccc4)CC3)cc2)cs1 = 20.9
C[C@H](NC(=O)C1(C2CCCC2)CCN(C(=O)c2ccc(-c3ccc(F)cc3)cc2)CC1)c1ccc(F)cc1 = 52.2
N#Cc1ccc(N2CCC(C(=O)N3CCC(C(=O)N[C@H](c4cccc(F)c4)C4CC4)(c4ccc(F)cc4)CC3)CC2)nc1 = 15
O=C(N1CCN(c2ccc(F)cc2)CC1)N1CCC(C(=O)N[C@H](c2cccc(F)c2)C2CC2)(c2ccc(F)cc2)CC1 = 5.1
C[C@H](NC(=O)C1(c2ccc(F)cc2)CCN(C(=O)C2CCN(c3ccc(C#N)cn3)CC2)CC1)c1cccc(F)c1 = 75

Ask | Report Ki for "C[C@H](NC(=O)C1(c2ccccc2)CCN(C(=O)N2CCN(c3cccnc3)CC2)CC1)c1ccccc1" please.
Reply | 63.8

Ask | Report Ki for O=C(c1ccc(-c2ccc(F)cc2)cc1)N1CCC(C(=O)NC(CC2CC2)c2ccccc2)(c2ccc(F)cc2)CC1 (stereo not shown) please.
Reply | 5.8

Ask | Report Ki for "C[C@H](NC(=O)C1(c2ccccc2)CCN(C(=O)c2cnc(-c3ccccc3)nc2)CC1)c1ccccc1" please.
Reply | 24.1

Ask | Report Ki for "C[C@H](NC(=O)C1(c2ccccc2)CCN(C(=O)c2ccc(N3CCS(=O)(=O)CC3)cc2)CC1)c1ccc(Cl)cc1" please.
Reply | 17.4

Ask | Report Ki for "C[C@H](NC(=O)C1(c2ccccc2)CCN(C(=O)c2ccc(-c3ccc(Cl)c(Cl)c3)cc2)CC1)c1ccccc1" please.
Reply | 19.6

Ask | Report Ki for "C[C@H](NC(=O)C1(c2ccccc2)CCN(C(=O)c2ccc(N3CCS(=O)(=O)CC3)nc2)CC1)c1ccccc1" please.
Reply | 33.6

Ask | Report Ki for "C[C@H](NC(=O)C1(c2ccccc2)CCN(C(=O)c2ccc(-c3ccccc3)nc2)CC1)c1ccccc1" please.
Reply | 20.6

Ask | Report Ki for "C[C@H](NC(=O)C1(c2ccccc2)CCN(C(=O)c2ccc(-c3ccc(C#N)cc3)cc2)CC1)c1ccccc1" please.
Reply | 14.8

Ask | Report Ki for "Cc1noc(-c2ccc(C(=O)N3CCC(C(=O)N[C@@H](C)c4ccc(F)cc4)(C4CCCC4)CC3)cc2)n1" please.
Reply | 39.8

Ask | Report Ki for C[C@H](NC(=O)C1(c2ccccc2)CCN(C(=O)C2CCC(c3ccc(Cl)cc3)CC2)CC1)c1ccccc1 (stereo partly shown) please.
Reply | 48.2

Ask | Report Ki for "O=C(c1ccc(N2CCCCC2=O)cc1)N1CCC(C(=O)N[C@H](c2cccc(F)c2)C2CC2)(c2ccc(F)cc2)CC1" please.
Reply | 21.5

FYI, the data here is from patent US8324250B2.
